Entry source: PubChem BioAssay (NCI)

Items are presented alongside their recorded growth.
Test system: SNB-19 CNS
Test: NCI-60 one-dose screen, 48 h (100 = growth as untreated, 0 = no growth, -100 = all killed)
Conditions: 10 µM unless noted
Compounds without any hit were thinned out: in the full panel of roughly 83,000, 20% have a hit.
The figure you give is taken to be in %; do not add the unit.

Examples from the recorded data:
{"Structure As Smiles": "O=c1c2cc(F)cc(Cl)c2sc2c(Cl)nc3ccccc3c12", "System Under Test": "SNB-19 CNS", "Assay Readout": "growth", "Measured Value": 96.5}
{"Structure As Smiles": "COc1cccc(/C=C/C(=O)c2c(C)nc3ccccc3c2/C=C/c2ccccc2)c1OC", "System Under Test": "SNB-19 CNS", "Assay Readout": "growth", "Measured Value": 36.3}

Identify measured growth corresponding to NCCCNc1nc2ccccc2c2c(=O)c3cc(F)ccc3sc12
44.4

----------
System: ACHN renal
Assay: NCI-60 one-dose screen, 48 h
Settings: 10 µM unless noted
Compounds without any hit were thinned out: in the full panel of roughly 83,000, 20% have a hit. Active and inactive are the calls of the source. How the source made its calls: active means growth percent below 10; inactive means the rest.
Pick one and only one: yes (1) (active), no (0) (inactive)

{"Compound": "C=CCN1C(=O)/C(=c2\\sc3n(c2=O)NC2C(N=3)N(CC)C(=O)N2CC)c2ccccc21 (stereo not drawn)", "Group": "no (0)"}

Lab log entry: O=C(/C=C/c1ccc(Cl)cc1)c1ccc(Nc2nc(NCCO)nc(N3CCOCC3)n2)cc1 — outcome as called in the assay?
no (0)

Hey, what did the test say about Cn1c(=O)n(C)c2cc(CNCCNc3ccnc4cc(Cl)ccc34)ccc21 ?
yes (1)

Tell me the recorded outcome of this test for O=c1cc(NC2CCN(CCCc3ccccc3)CC2)c2cc(Cl)ccc2o1 .
no (0)

State the result this test recorded for COc1ccc(-c2nsc3c2NC(=O)CC3c2cccc(OC)c2)cc1 (stereo not drawn) .
no (0)

Which outcome did this test record for the compound CNC(=O)c1cc(Oc2ccc(CC(=O)Nc3cc(C(C)(C)C)cn3C)cc2)ccn1 ?
no (0)

In this assay, the call recorded for NCCNc1nc2ccc(F)cc2c2c(=O)c3cc(F)ccc3sc12 was what?
no (0)

What outcome does the record of this test show for COc1cc(/C=C2\CCC/C(=C\c3cc(CN4CCCCC4)c(O)c(OC)c3)C2=O)cc(CN2CCCCC2)c1O ?
no (0)

Tell me the recorded outcome of this test for CCN(CCO)CCNc1ccc(C)c2sc3cc(Cl)ccc3c(=O)c12 .
yes (1)

Please share the test call associated with COC(=O)[C@@H]1CCCN1C(=O)[C@H]1CCCN1C(=O)[C@@H](Cc1c[nH]c2ccccc12)NC(=S)Nc1cc(C(F)(F)F)cc(C(F)(F)F)c1 .
no (0)

Answer briefly: the call reported for O=C(/C=C/c1ccccn1)c1ccc(OCc2nnc(-c3ccc(Cl)cc3)o2)cc1 in this assay.
no (0)

Answer briefly: the call reported for CCOc1cc(Cl)c(C(C)NC(=O)c2cccc(OC)c2)cc1OCC (stereo not drawn) in this assay.
yes (1)

Tell me the recorded outcome of this test for O=c1[nH]nnc2c1ncn2C1OC(CO)C(O)C1O (stereo not drawn) .
no (0)

Kindly provide the recorded test outcome for the following compound: COc1ccc(OC)c(/C=C/C(=O)c2c(C)nc3ccccc3c2/C=C/c2ccccc2)c1
no (0)

Record lookup: outcome of this test for CCN1C(=O)N(CC)C2C1NN=c1s/c(=C3\C(=O)N(CC(C)(C)C)c4ccccc43)c(=O)n12 (stereo not drawn) ?
no (0)

What classification did O=c1oc2ccc(I)cc2c(=O)n1-c1ccc(I)cc1F end up with in this test?
yes (1)

Dear all, I need the recorded test outcome for COC(=O)c1cc2c(n1Cc1ccccc1)-c1oncc1CCC2 , thank you.
no (0)

What did this assay record as the result for O=C1c2cc(Br)ccc2Oc2cc([N+](=O)[O-])ccc2N1c1ccc(I)cc1F ?
no (0)
